Origin of the recorded values: patent US20090325964A1

assay.target: rat mGluR5 receptor (Rattus norvegicus, UniProt P31424)
Construct: expressed in transfected cells; host or cells: HEK-293
Sequence (P31424 21-1203): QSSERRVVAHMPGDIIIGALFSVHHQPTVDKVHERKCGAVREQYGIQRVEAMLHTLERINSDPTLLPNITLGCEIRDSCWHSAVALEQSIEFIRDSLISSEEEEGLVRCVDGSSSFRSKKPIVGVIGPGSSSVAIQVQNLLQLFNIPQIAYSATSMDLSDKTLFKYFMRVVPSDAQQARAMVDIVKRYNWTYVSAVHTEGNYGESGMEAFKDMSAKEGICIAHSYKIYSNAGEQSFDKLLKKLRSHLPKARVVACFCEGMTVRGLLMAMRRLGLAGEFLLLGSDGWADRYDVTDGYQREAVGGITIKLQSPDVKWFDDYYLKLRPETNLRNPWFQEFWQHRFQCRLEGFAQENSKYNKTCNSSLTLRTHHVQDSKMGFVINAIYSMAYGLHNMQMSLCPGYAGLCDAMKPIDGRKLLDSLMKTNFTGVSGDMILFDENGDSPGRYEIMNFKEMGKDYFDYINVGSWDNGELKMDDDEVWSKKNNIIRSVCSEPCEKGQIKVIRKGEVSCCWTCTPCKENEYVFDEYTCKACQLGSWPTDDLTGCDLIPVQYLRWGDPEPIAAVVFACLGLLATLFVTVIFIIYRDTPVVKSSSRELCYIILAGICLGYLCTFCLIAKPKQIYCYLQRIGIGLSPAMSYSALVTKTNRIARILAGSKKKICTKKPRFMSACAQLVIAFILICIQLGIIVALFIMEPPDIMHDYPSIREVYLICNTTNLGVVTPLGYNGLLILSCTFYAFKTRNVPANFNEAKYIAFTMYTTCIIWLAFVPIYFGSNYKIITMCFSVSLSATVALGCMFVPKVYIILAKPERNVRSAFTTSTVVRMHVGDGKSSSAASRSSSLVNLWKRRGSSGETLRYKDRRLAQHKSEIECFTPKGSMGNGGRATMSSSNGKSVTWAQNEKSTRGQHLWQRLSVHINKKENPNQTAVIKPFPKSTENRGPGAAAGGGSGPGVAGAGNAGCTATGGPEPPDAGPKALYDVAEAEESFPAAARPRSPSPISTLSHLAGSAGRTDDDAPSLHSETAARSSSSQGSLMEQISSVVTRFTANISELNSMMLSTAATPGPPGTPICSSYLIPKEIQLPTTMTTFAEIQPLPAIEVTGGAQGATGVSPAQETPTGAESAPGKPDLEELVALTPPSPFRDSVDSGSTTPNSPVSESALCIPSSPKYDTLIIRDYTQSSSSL
test.summary: [3H]-MPEP displacement binding assay, HEK-293 cell membranes expressing rat mGluR5
settings: [3H]-MPEP displacement, rat mGluR5 membranes; read-out: Median Ki
A collection of molecules and their measured Ki
Reply with the number and its unit after it.

As a guide, the following entries are already answered.
{"smiles.structure": "O=C(c1ccc(C(F)(F)F)c(C#Cc2ccccn2)c1)N1CCN(c2ncccn2)CC1", "Ki": "164 nM"}
{"smiles.structure": "O=C(c1ccc(Cl)c(C#Cc2ccccn2)c1)N1CCN(c2nccs2)CC1", "Ki": "7 nM"}
{"smiles.structure": "O=C(c1ccc(C(F)(F)F)c(C#Cc2ccccn2)c1)N1CCN(c2ccccn2)CC1", "Ki": "31 nM"}
{"smiles.structure": "Cc1ccc(N2CCN(C(=O)c3ccc(C(F)(F)F)c(C#Cc4ccccn4)c3)CC2)nc1", "Ki": "292 nM"}
{"smiles.structure": "O=C(c1ccc(OC(F)F)c(C#Cc2ccccn2)c1)N1CCN(c2nsc3ccccc23)CC1", "Ki": "1 nM"}

The molecule listed as O=C(c1ccc(C(F)(F)F)c(C#Cc2ccccn2)c1)N1CCN(C(=O)c2ccco2)CC1 shows Ki equal to 29 nM

Note to self: Ki recorded for O=C(c1ccc(Cl)c(C#Cc2ccccn2)c1)N1CCN(c2ncccc2Cl)CC1 was 21 nM

For record O=C(c1ccc(Cl)c(C#Cc2ccccn2)c1)N1CCN(c2cccc(O)c2)CC1 the listed Ki is 12 nM

Lab book: Ki of O=C(c1ccc(C(F)(F)F)c(C#Cc2ccccn2)c1)N1CCN(c2ncccc2Cl)CC1 noted as 1000 nM

Entry O=C(c1ccc(C(F)(F)F)c(C#Cc2ccccn2)c1)N1CCN(c2cnccn2)CC1 ; Ki = 162 nM

// Ki lookup, molecule = O=C(c1ccc(OC(F)F)c(C#Cc2ccccn2)c1)N1CCN(c2ccccn2)CC1 , result: 7 nM

Measured Ki of N#Cc1nccnc1N1CCN(C(=O)c2ccc(Cl)c(C#Cc3ccccn3)c2)CC1 : 17 nM

Looking up O=C(c1ccc(C(F)(F)F)c(C#Cc2ccccn2)c1)N1CCN(Cc2cccc(F)c2)CC1 , I found its Ki recorded as 811 nM

Looking up COc1nc(N2CCN(C(=O)c3ccc(OC(F)F)c(C#Cc4ccccn4)c3)CC2)ncc1Br , I see its Ki listed as 35 nM

get_value(item= O=C(c1ccc(Cl)c(C#Cc2ccccn2)c1)N1CCN(c2ccccn2)CC1 , readout=Ki) returns 3 nM

Recorded result, N#Cc1nccnc1N1CCN(C(=O)c2ccc(C(F)(F)F)c(C#Cc3ccccn3)c2)CC1 , Ki: 459 nM
